# assayed_target: Carbonic anhydrase 9 (Homo sapiens, UniProt Q16790)
# assay_method_text: Inhibition of recombinant human carbonic anhydrase 9 preincubated for 10 mins by stopped flow CO2 hydrase assay
Criterion: Ki strictly under 3 µM. Met: rule met. Not met: rule not met.

> print(dat)
                               sample.smiles    class.name
 1  O=c1cc(CN2CCN(Cc3ccccc3)CC2)c2ccc(OCc3ccccc3F)cc2o1      rule met
 2  COc1ccc(N2CCN(Cc3cc(=O)oc4cc(OCc5cccc(OC)c5)ccc34)CC2)cc1      rule met
 3  COc1ccc(N2CCN(Cc3cc(=O)oc4cc(OCc5cccc(Cl)c5)ccc34)CC2)cc1  rule not met
 4  Cc1cc(C)cc(COc2ccc3c(CN4CCN(Cc5ccccc5)CC4)cc(=O)oc3c2)c1      rule met
 5  O=c1cc(CN2CCN(Cc3ccccc3)CC2)c2ccc(OCc3cccc(Br)c3)cc2o1      rule met
 6  COc1ccc(N2CCN(Cc3cc(=O)oc4cc(OCc5ccccc5[N+](=O)[O-])ccc34)CC2)cc1  rule not met
 7  O=c1cc(CN2CCN(Cc3ccccc3)CC2)c2ccc(OCc3ccc([N+](=O)[O-])cc3)cc2o1  rule not met
 8  COc1ccc(N2CCN(Cc3cc(=O)oc4cc(OCc5cc(C)cc(C)c5)ccc34)CC2)cc1  rule not met
 9  COc1ccc(N2CCN(Cc3cc(=O)oc4cc(OCc5cccc(Br)c5)ccc34)CC2)cc1  rule not met
10  O=c1cc(CN2CCN(Cc3ccccc3)CC2)c2ccc(OCc3ccccc3)cc2o1  rule not met
